Readings of inhibition at 0.5 µM for the listed compounds
# ASSAY_TARGET: recombinant human PIM1 (Homo sapiens (Human))
# Sequence (P11309 whole entry): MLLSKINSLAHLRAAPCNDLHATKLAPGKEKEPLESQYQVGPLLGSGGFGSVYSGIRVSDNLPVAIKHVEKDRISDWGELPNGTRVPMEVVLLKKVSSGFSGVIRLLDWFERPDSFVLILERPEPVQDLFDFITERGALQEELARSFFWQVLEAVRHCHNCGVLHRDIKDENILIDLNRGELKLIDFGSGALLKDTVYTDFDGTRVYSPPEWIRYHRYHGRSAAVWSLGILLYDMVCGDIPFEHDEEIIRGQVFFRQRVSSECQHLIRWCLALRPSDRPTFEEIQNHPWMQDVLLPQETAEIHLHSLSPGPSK
# PROCEDURE_TEXT: PIM-1 kinase activity in cell-free in vitro assay
# Assay type: biochemical
# DETAILS: 500 nM compound, cell-free assay; read-out: PIM-1: % inh 500 nM
Numbers only; they are read as %.

Observe how each entry below is paired with its result.
{"columns": ["COMPOUND", "inhibition at 0.5 µM (%)"],
 "data": [
  ["O=C(O)c1ccc2c(c1)nc(Nc1cc(F)cc(F)c1)c1nc(NC3CC3)ncc12", 48.9],
  ["CC(C)Nc1ncc2c(n1)c(NC1CC1)nc1cc(C(=O)O)ccc12", 73.3],
  ["COC(=O)c1ccc2c(c1)nc(Nc1ccccc1C)c1nc(SC)ncc12", 12.5],
  ["COC(=O)c1cccc2c1nc(Cl)c1ccncc12 [drawing 2000]", -29.2]
]}

Recorded inhibition at 0.5 µM for O=C(O)c1ccc2c(c1)nc(Nc1ccc(F)c(Cl)c1)c1nc(NC3CC3)ncc12 , please?
6.63

Recorded inhibition at 0.5 µM for O=C(O)c1ccc2c(c1)nc(Nc1cccc(CO)c1)c1ccncc12 , please?
64.7

Recorded inhibition at 0.5 µM for CCN1CCCC1CNc1nc2cc(-c3nnn[nH]3)ccc2c2ccsc12 (centres unmarked) , please?
80

Recorded inhibition at 0.5 µM for COCCNc1ncc2c(n1)c(NC1CC1)nc1cc(C(=O)O)ccc12 , please?
17.2

Recorded inhibition at 0.5 µM for Cc1ccccc1Nc1nc2cc(C(=O)N(C)C)ccc2c2cnc(NC3CC3)nc12 , please?
0.71

Recorded inhibition at 0.5 µM for C#Cc1cccc(Nc2nc3cc(C(=O)NC4CC4)ccc3c3cncnc23)c1 , please?
-13.1

Recorded inhibition at 0.5 µM for Cc1cc(Nc2ncc3c(n2)c(Nc2ccc(F)c(Cl)c2)nc2cc(C(=O)O)ccc23)[nH]n1 [drawing 1635] , please?
66.1

Recorded inhibition at 0.5 µM for CC(C)OCCCNc1ncc2c(n1)c(NC1CC1)nc1cc(C(=O)O)ccc12 , please?
-40.2

Recorded inhibition at 0.5 µM for N#Cc1ccc2c(c1)nc(Oc1ccccc1)c1ccsc12 , please?
-38.6

Recorded inhibition at 0.5 µM for CN(C)CCNc1nc2cc(-c3nnn[nH]3)ccc2c2ccsc12 , please?
99.2

Recorded inhibition at 0.5 µM for C#Cc1cccc(Nc2nc3cc(C(=O)O)ccc3c3cnc(NCCCOCC)nc23)c1 , please?
2.19

Recorded inhibition at 0.5 µM for O=C(NCc1cccnc1)c1ccc2c(c1)nc(Nc1cccc(Cl)c1)c1ccncc12 , please?
-16.2

Recorded inhibition at 0.5 µM for FC(F)(F)c1cccc(Nc2nc3cc(-c4nnn[nH]4)ccc3c3cscc23)c1 , please?
-6.51

Recorded inhibition at 0.5 µM for NC(=O)c1ccc2c(c1)nc(Nc1cccc(Cl)c1)c1ccncc12 [drawing 1674] , please?
-3.44
